test system: HEK293 Gal4-VP16 luciferase reporter counterscreen; experiment: Gal4-VP16 luciferase reporter inhibitors, late-stage follow-up, counter-screen for COUP-TFII inhibitor project, cell-based, luminescence, HEK293, powder samples, round 000 (AID 743283)
Activity calls are given as the source filed them.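 The calls were made as follows: active = IC50 at or below 10 µM; inactive = IC50 above 10 µM.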
Classes used: active, inactive

Molecule | Label class
Cc1cc(C)c(S(=O)(=O)NCc2ccncc2)c(C)c1 | inactive
COc1ccc(CN(C)c2ccc(S(=O)(=O)N3CCN(C)CC3)cc2[N+](=O)[O-])cc1OC | inactive
CCN(CC)S(=O)(=O)c1cccc(NC(=O)CNc2cccc(S(=O)(=O)N3CCCC3)c2)c1 | inactive
Cc1ccc(OCCN2CCN(c3ncnc4sc(C)c(C)c34)CC2)cc1 | inactive
CC(=O)Nc1ccccc1OCC(=O)c1cc(C)n(Cc2cccs2)c1C | active
Cc1cc(-n2nc3ccccc3n2)c2oc(SCC(=O)NC(C)(C)C)nc2c1 | inactive
COc1ccc(CCNc2ncnc3sc(C)cc23)cc1OC | inactive
CC1Cc2cc(-c3csc(NC(=O)Cc4cccs4)n3)ccc2N1S(C)(=O)=O (stereo not given) | inactive
Clc1ccc(OCCN2CCN(c3ncnc4sccc34)CC2)cc1 | inactive
O=C(Nc1ccncc1)c1ccc(Cl)c(S(=O)(=O)N2CCc3ccccc32)c1 | inactive

* * *

Quick list: IC50 per entry.
system: HEK293 Gal4-VP16 luciferase reporter counterscreen; test: Gal4-VP16 luciferase reporter inhibitors, late-stage follow-up, counter-screen for COUP-TFII inhibitor project, cell-based, luminescence, HEK293, powder samples, round 000 (AID 743283)
Activity calls are given as the source filed them.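 Rule for the calls: active = IC50 at or below 10 µM; inactive = IC50 above 10 µM.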
Assay metric: IC50

Compound | Val
Cc1sc2ncnc(NCCc3ccc(S(N)(=O)=O)cc3)c2c1C | > 85.4 µM (inactive)
Cc1cc(-n2c(C)cc(C(=O)CSc3ncnc4ccccc34)c2C)no1 | > 85.4 µM (inactive)
Cc1ccc(S(=O)(=O)CC2CSc3nc4ccccc4n32)cc1 (stereo unspecified) | > 85.4 µM (inactive)
CCOc1cc(S(=O)(=O)NCc2ccncc2)ccc1Cl | > 85.4 µM (inactive)
CCOC(=O)N1CCN(C(=O)CSCC(=O)Nc2nc(-c3ccc(-c4ccccc4)cc3)cs2)CC1 | 33.9 µM (inactive)
COc1ccc(NS(=O)(=O)c2ccc(-c3coc(C)n3)cc2)cc1OC | > 85.4 µM (inactive)
COc1ccc(CCNc2ncnc3sccc23)cc1OC | > 85.4 µM (inactive)
COc1ccc(OC)c(CCNC(=O)Cn2nc(C)c3c(C)n(-c4ccc(C)cc4)nc3c2=O)c1 | > 28.5 µM (inactive)
Cn1nccc1C(=O)NC1CCCc2c1cnn2-c1ccc(C(C)(C)C)cc1 (stereo unspecified) | > 85.4 µM (inactive)
Cc1sc2ncnc(NCC3COc4ccccc4O3)c2c1C (stereo unspecified) | > 85.4 µM (inactive)
CC(Nc1ncnc2ccccc12)c1ccccc1 (stereo unspecified) | > 85.4 µM (inactive)
CN(CC1CCCO1)S(=O)(=O)c1ccc(C(=O)Nc2nc3cc4c(cc3s2)OCO4)cc1 (stereo unspecified) | > 42.7 µM (inactive)
COc1ccc(C2=Nn3c([n+](C)c4ccccc43)SC2)cc1 | > 85.4 µM (inactive)
CCOC(=O)C1CCCN(S(=O)(=O)c2ccc(S(=O)(=O)N(CC)CC)cc2)C1 (stereo unspecified) | > 85.4 µM (inactive)
COc1ccc(NS(=O)(=O)c2cccc(NC(=O)c3ccc(Cl)nc3)c2)cc1 | > 28.5 µM (inactive)
CCC1CCCCN1C(=O)c1cc(COc2ccc3ncccc3c2)on1 (stereo unspecified) | > 85.4 µM (inactive)
